species on record: Rattus norvegicus; test: Displacement of [3H]idazoxan from rat cerebral cortex imidazole receptor 2 at 10 uM in presence of 1 uM yohimbine; type: tissue-based
Property: inhibition (%)
One number for each entry, in %.

Record excerpt, results attached:
c1ccc(-c2ncc3cc(-n4ccnc4)ccc3n2)cc1 = 66
NCC12CCC3CC(CC3C1)C2 (centres undefined) = 34
CN(C)C(CN)c1ccccc1Cl (centres undefined) = 43

Would you kindly look at the next entry?
**Q:** Recorded inhibition of CN1CCNC(c2ccccc2)C1 (centres undefined) , please.
**A:** 41

* * *

molecular target: Nischarin (Homo sapiens)
Sequence (Q9Y2I1 whole entry): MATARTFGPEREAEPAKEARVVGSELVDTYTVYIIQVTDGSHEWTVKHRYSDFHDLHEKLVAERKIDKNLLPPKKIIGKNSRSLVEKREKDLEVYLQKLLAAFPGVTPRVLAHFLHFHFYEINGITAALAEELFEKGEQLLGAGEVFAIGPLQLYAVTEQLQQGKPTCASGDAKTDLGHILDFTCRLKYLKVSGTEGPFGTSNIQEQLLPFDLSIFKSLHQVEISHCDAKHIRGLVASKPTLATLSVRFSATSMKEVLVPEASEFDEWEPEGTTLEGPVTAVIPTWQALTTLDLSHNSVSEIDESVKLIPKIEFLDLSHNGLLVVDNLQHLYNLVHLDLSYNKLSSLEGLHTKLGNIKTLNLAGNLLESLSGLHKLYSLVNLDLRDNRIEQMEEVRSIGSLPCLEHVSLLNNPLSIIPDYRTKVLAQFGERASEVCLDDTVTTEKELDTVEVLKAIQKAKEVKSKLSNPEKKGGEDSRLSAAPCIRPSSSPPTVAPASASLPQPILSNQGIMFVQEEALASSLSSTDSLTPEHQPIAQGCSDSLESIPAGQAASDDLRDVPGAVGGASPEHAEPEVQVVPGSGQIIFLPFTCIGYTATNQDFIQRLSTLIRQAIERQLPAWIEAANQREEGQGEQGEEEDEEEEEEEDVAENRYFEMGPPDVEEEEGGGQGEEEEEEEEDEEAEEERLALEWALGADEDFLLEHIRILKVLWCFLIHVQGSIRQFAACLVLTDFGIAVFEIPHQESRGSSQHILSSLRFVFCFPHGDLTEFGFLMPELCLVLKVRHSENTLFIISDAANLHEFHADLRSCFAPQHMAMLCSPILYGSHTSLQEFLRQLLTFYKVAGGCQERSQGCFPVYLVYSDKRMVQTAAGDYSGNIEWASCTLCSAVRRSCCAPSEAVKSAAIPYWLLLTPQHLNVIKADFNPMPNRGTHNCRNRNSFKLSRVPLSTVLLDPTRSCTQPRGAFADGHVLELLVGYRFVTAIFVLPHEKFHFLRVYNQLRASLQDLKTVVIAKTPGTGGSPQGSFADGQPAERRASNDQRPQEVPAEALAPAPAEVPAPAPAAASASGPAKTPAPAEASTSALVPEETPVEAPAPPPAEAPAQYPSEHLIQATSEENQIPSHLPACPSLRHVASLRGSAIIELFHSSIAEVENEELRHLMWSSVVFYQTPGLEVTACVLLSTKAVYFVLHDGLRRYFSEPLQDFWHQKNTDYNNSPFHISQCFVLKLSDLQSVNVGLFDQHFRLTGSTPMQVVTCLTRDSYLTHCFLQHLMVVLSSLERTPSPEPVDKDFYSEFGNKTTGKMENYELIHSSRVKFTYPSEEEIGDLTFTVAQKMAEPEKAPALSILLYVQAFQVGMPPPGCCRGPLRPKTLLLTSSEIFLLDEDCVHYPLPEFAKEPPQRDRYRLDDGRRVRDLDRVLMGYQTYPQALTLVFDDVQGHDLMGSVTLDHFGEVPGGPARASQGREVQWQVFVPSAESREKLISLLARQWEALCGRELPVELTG
Property: pKi
Answers are plain numbers, as −log10 of the molar value.

**Q:** I'd like to know its pKi. The compound in question is CN(C)C(CN)c1ccccc1Cl (stereo unspecified)
**A:** 5.28

* * *

biological target: MAO-B (amine oxidase [flavin-containing] B) (Homo sapiens); assay: Inhibition of MAOB at 10 uM
Sequence (P27338 whole entry): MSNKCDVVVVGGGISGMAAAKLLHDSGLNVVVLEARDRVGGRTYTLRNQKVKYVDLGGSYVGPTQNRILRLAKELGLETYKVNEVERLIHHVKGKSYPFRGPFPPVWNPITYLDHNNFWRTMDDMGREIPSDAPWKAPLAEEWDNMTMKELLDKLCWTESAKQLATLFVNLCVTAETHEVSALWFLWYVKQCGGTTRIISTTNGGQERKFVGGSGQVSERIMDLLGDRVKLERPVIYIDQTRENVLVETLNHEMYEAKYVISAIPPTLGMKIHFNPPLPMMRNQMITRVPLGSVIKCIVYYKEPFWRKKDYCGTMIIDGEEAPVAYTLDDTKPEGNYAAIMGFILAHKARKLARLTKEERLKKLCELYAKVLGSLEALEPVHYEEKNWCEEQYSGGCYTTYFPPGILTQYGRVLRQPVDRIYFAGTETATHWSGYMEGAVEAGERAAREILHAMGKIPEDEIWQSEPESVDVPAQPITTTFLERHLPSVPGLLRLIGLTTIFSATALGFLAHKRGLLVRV
Property: inhibition at 10 µM

Please review the following examples before continuing.
NCC12CCC3CC(CC3C1)C2 (stereo not drawn) = < 20%
CN(C)C(CN)c1ccccc1Cl (stereo not drawn) = < 20%

Alright, here's another compound for you.
**Q:** Which inhibition at 10 µM is listed for CN1CCNC(c2ccccc2)C1 (stereo not drawn) ?
**A:** < 20%

* * *

test: Inhibition of radioligand binding to N-methyl D-aspartate receptor phencyclidine binding site at 10 uM
Active and inactive are the calls of the source. The calls are words filed in the database; no cut-off is given here.
Property: inhibition

CC12CC3CC(C)(C1)CC(N)(C3)C2 [MEMANTINE] = 92%
CN1CCNC(c2ccccc2)C1 (stereo unspecified) = inactive
NCC12CCC3CC(CC3C1)C2 (stereo unspecified) = inactive
C[C@]12N[C@H](Cc3ccccc31)c1ccccc12 = 98%
c1ccc(C2NCCc3ccccc32)cc1 (stereo unspecified) = 69%

Now consider a different molecule.
**Q:** Fill blank: measured inhibition of the molecule CN(C)C(CN)c1ccccc1Cl (stereo unspecified) is ____.
**A:** inactive

* * *

assay: Displacement of [3H]idazoxan from rat cerebral cortex imidazole receptor 2 in presence of 1 uM yohimbine; type: tissue-based
Property: pKi
Answers are plain numbers, as −log10 of the molar value.

# annotated cases, reported pKi shown
CN(C)C(CN)c1ccccc1Cl (stereo not drawn) = 4.85
NCC12CCC3CC(CC3C1)C2 (stereo not drawn) = 4.59

// below: pKi requested for another compound
**Q:** Item under review: CN1CCNC(c2ccccc2)C1 (stereo not drawn) . Reported pKi?
**A:** 4.74

Source listed as ChEMBL document CHEMBL2176910.
